Source listed as PubChem BioAssay (NCI).

- Test system: U251 CNS
- EXPERIMENT_DESCRIPTION: NCI tumour cell line growth inhibition, 48 h
Where a SMILES comes first, the peptide text is derived from it. [ ]: non-standard residue; d: D form. Ava = NCCCCC(=O)O; Mpa = O=C(O)CCS
PARAMETER: TGI

For this molecule ( Nc1c(C(=O)c2cccc(-c3cccnc3)c2)cnn1-c1ccc(F)cc1 ), measured TGI is > 25 µM

Record CCN(CC)CCC(=O)/C=C/c1ccc(Cl)c(Cl)c1 . Reported TGI: > 10 µM

Summary for this molecule, CCC1(CC)C(=O)NC(=O)NC1=S : TGI is > 100 µM

Field TGI (entry CC(NC(=O)CCS)C(=O)NC(C)C(=O)NC(Cc1c[nH]c2ccccc12)C(=O)NC(Cc1c[nH]cn1)C(=O)NC(CO)C(=O)NC(Cc1c[nH]c2ccccc12)C(=O)NCCCCC(=O)NC(C)C(=O)NC(CCC(N)=O)C(=O)NC(CCCCN)C(=O)NC(C)C(=O)NC(CCCNC(=N)N)C(=O)NC(CCCCN)C(N)=O (stereo not given) ([Mpa]AAWHSW[Ava]AQKARK-NH2; configuration not given here) ) reads > 100 µM

For record CC(=O)c1cc2c(Br)cccc2oc1=O the listed TGI is > 100 µM

* * *

Give TGI for every item shown.
- Tested on: ACHN renal
- EXPERIMENT_DESCRIPTION: NCI tumour cell line growth inhibition, 48 h

Item: Cc1cccc2c(=O)c3cccc([C@H](C)C(=O)O)c3oc12 | TGI: > 100 µM

TGI for Nc1nc(N)nc(CCCCc2nc(N)nc(N)n2)n1 is > 100 µM

Lab note: COc1ccc(/C=C\c2cc(OC)c(OC)c(OC)c2)cc1NC(=O)/C=C/c1ccc(OC)c(OC)c1 gave TGI of > 100 µM

TGI reading for COc1ccc(CCN2CCCn3c2nc2ccccc2c3=O)cc1 : > 100 µM

Please fill in: TGI reported for Cc1cc(C)c2c(=N)c3ccccc3n(CCCCCCCCn3c4ccccc4c(=N)c4c(C)cc(C)nc43)c2n1 = 2.91 µM

response.value for COc1cc(C[C@H]2COC(=O)[C@]2(O)Cc2ccc(OCc3ccccc3)c(OC)c2)ccc1OCc1ccccc1 (field: TGI) = > 100 µM

Note to self: TGI recorded for CCCC(=O)Oc1ccc(/C(=C(\C)c2ccc(Cl)cc2)c2ccc(OCCN(CC)CC)cc2)cc1 was 11.9 µM

The measured TGI associated with CCN(Cc1ccc(Cl)c(Cl)c1)c1ccc2nc(N)nc(N)c2c1C reads 1.78 µM

TGI measured on O=C(CCCc1cccc2[nH]c3c(c12)CN(Cc1ccccc1)CC3)c1ccc(F)cc1 = > 100 µM

The value of TGI measured for the compound CCOP(=O)(OCC)C(c1ccc(F)cc1)N(C(=O)NC(F)(F)F)c1ccc(F)cc1 (stereo unspecified) turned out to be > 100 µM

// recorded TGI for Cc1ccc(C(=O)Nc2ccc(S(=O)(=O)O)c3cc(S(=O)(=O)O)cc(S(=O)(=O)O)c23)cc1NC(=O)c1cccc(NC(=O)Nc2cccc(C(=O)Nc3cc(C(=O)Nc4ccc(S(=O)(=O)O)c5cc(S(=O)(=O)O)cc(S(=O)(=O)O)c45)ccc3C)c2)c1 : > 100 µM

Quick note, TGI for CCN(CC)CCC(=O)/C=C/c1ccc(Cl)c(Cl)c1 landed at > 10 µM

For COc1ccccc1/C=C1\C(=O)N(C(=O)Cc2ccccc2)N=C1C the compound record lists TGI as > 100 µM

Record summary for COc1ccc([N+](=O)[O-])c2c(NCCCN(C)C)c(C)c(C)nc12 : reported TGI = > 100 µM

In plain terms, CCN(CC)Cc1cc(N=Nc2c(O)ccc3c(N=Nc4ccc(O)c(CN(CC)CC)c4)c(O)ccc23)ccc1O has a documented TGI of 7.71 µM

Per the record, CCN(Cc1cc(Cl)cc(C)c1O)Cc1c(O)ccc2ccccc12 has TGI of 31.5 µM
